testDescription: AUC(0 to infinity) in ICR mouse at 1 mg/kg, iv
Format: ADME, organism-based
Design: dose 1 mg/kg, route iv
assaySetup: in vivo
outcomeMeasure: AUC(0-inf) (ng·h/mL)

* CCc1nc(-c2ccc(OC)cc2)n(-c2cccc(C(=O)NCCCCn3nccn3)c2)n1 | 762

* * *

testDescription: AUC(0 to t) in ICR mouse at 1 mg/kg, iv
Format: ADME, organism-based
Design: dose 1 mg/kg, route iv
assaySetup: in vivo
outcomeMeasure: AUC(0-t) (ng·h/mL)

* CCc1nc(-c2ccc(OC)cc2)n(-c2cccc(C(=O)NCCCCn3nccn3)c2)n1 | 751

* * *

testDescription: Oral bioavailability in ICR mouse at 10 mg/kg
Assay type: ADME, organism-based
assaySetup: in vivo
outcomeMeasure: bioavailability (%)

• CCc1nc(-c2ccc(OC)cc2)n(-c2cccc(C(=O)NCCCCn3nccn3)c2)n1 = 65.5

* * *

testDescription: Half life in ICR mouse at 10 mg/kg, po
Assay type: ADME, organism-based
assaySetup: in vivo
outcomeMeasure: half-life (min)

- CCc1nc(-c2ccc(OC)cc2)n(-c2cccc(C(=O)NCCCCn3nccn3)c2)n1: 38.4

* * *

Test system: BXPC-3
testDescription: Antiproliferative activity against human BXPC-3 cells incubated for 48 hrs by SRB assay
Assay type: functional, cell-based
assaySetup: BXPC-3, 48 h
outcomeMeasure: IC50 (nM)

* CCc1nc(-c2ccc(OC)cc2)n(-c2cccc(C(=O)NCCCCn3nccn3)c2)n1 | 130

* * *

Each entry below carries its reported IC50.
System: MGC-803
testDescription: Antiproliferative activity against human MGC-803 cells incubated for 48 hrs by SRB assay
Format: functional, cell-based
assaySetup: MGC-803, 48 h
outcomeMeasure: IC50 (nM)

* CCc1nc(-c2ccc(OC)cc2)n(-c2cccc(C(=O)NCCCCn3nc(Br)c(Br)n3)c2)n1 | 9800
* CCc1nc(-c2ccc(OC)cc2)n(-c2cccc(C(=O)NCCCCn3ncnn3)c2)n1 | 580
* CCc1nc(-c2ncc(OC)cn2)n(-c2cccc(C(=O)NCCCCc3ccccc3)c2)n1 | 250

* * *

testDescription: Aqueous solubility of compound in PBS at pH 9
Assay type: physicochemical
outcomeMeasure: solubility (µM)

- CCc1nc(-c2ccc(OC)cc2)n(-c2cccc(C(=O)NCCCCn3ncnn3)c2)n1: 186
- CCc1nc(-c2ccc(OC)cc2)n(-c2cccc(C(=O)NCCCCn3cccn3)c2)n1: 352
- CCc1nc(-c2ccc(OC)cc2)n(-c2cccc(C(=O)NCCCCn3nccn3)c2)n1: 258

* * *

Each entry below carries its reported pIC50.
Test system: MKN-45
testDescription: Antiproliferative activity against human MKN-45 cells incubated for 48 hrs by SRB assay
Type: functional, cell-based
assaySetup: MKN-45, 48 h
pIC50: −log10 of the molar value.
outcomeMeasure: pIC50

• CCc1nc(-c2ccc(OC(F)(F)F)cc2)n(-c2cccc(C(=O)NCCCCn3nccn3)c2)n1 = 5.29
• CCc1nc(-c2ccc(O)cc2)n(-c2cccc(C(=O)NCCCCn3nccn3)c2)n1 = 6.31
• CCc1nc(-c2ccc(OC)cc2)n(-c2cccc(C(=O)NCCCCn3cccn3)c2)n1 = 6.27
• CCc1nc(-c2ccc(OC)cc2)n(-c2cccc(C(=O)NCCCCc3cccs3)c2)n1 = 6.12
• CCc1nc(-c2ccc(Cl)cc2)n(-c2cccc(C(=O)NCCCCn3nccn3)c2)n1 = 6.48
• CCc1nc(-c2cccc(OC)c2)n(-c2cccc(C(=O)NCCCCn3nccn3)c2)n1 = 5.04
• CCc1nc(-c2ccccc2)n(-c2cccc(C(=O)NCCCCn3nccn3)c2)n1 = 5.51
• CCc1nc(-c2ccc(OC)cc2)n(-c2cccc(C(=O)NCCCCCn3nccn3)c2)n1 = 5.18
• CCc1nc(-c2ccc(OC)cc2)n(-c2cccc(C(=O)NCCCCn3cc(Br)cn3)c2)n1 = 5.35
• CCc1nc(-c2ccc(OC)cc2)n(-c2cccc(C(=O)NCCCCCCn3nccn3)c2)n1 = 5.02
• CCc1nc(-c2ccccc2OC)n(-c2cccc(C(=O)NCCCCn3nccn3)c2)n1 = 5.59
• CCc1nc(-c2ccc(OC)cc2)n(-c2cccc(C(=O)NCCCCn3ncc(Br)n3)c2)n1 = 6.59

Hello, the source for this data is ChEMBL document CHEMBL5356958, in case you need it.
